Hello, the source for this data is patent US11286268B1, in case you need it.

Measured IC50 by item
biological target: recombinant eIF4E (Homo sapiens (Human)); experiment: Fluorescence polarization competition assay for eIF4E binding potency; details: fluorescence polarization competition, 75 nM recombinant eIF4E, 20 nM EDA-m7GDP-ATTO-550; IC50 class; read-out: elF4E FP
Sequence (P06730 whole entry): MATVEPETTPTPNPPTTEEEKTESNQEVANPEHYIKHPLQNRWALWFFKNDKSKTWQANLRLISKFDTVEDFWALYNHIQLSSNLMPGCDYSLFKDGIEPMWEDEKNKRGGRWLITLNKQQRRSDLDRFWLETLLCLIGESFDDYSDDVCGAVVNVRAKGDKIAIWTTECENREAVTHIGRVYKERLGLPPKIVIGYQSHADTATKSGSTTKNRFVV

Here's what some known entries look like.
compound: Cc1nc2c(F)cc(C(F)F)c(C#N)c2c(=O)n1CCOc1ccc(Cl)cc1-c1ccnc2c(C(=O)O)csc12 [compound 22]
measured.quantity: IC50
result: < 0.05 µM
--
compound: Cc1cc(-c2cc(Cl)ccc2OCCn2c(C)nc3cnc(C4CC(F)(F)C4)c(C#N)c3c2=O)c2scc(C(=O)O)c2n1 [compound 928]
measured.quantity: IC50
result: < 0.05 µM
--
compound: Cc1c(C(F)(F)F)c2cc(C(F)(F)F)cc(C#N)c2c(=O)n1CCOc1ccc(Cl)cc1-c1ccnc2c(C(=O)O)csc12 [compound 268]
measured.quantity: IC50
result: < 0.05 µM

For the compound Cc1cc(-c2cc(Cl)ccc2OCCn2c(C)nc3cc(Cl)c(Cl)c(C#N)c3c2=O)c2scc(C(=O)O)c2n1 [compound 582] , what IC50 is on record?
< 0.05 µM

For the compound N#Cc1cc2c(=O)n(CCOc3ccc(Cl)cc3-c3ccc(C#N)c(C(=O)O)c3)cnc2cn1 [compound 94] , what IC50 is on record?
> 1 µM

For the compound Cc1cc(-c2cc(Cl)ccc2OCCn2c(C)nc3cnc(-c4ccc(F)cc4)c(C#N)c3c2=O)c2scc(C(=O)O)c2n1 [compound 943] , what IC50 is on record?
< 0.05 µM
